- targetOrTestSystem: furin, P09958;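 also: purified furin at 1:10 enzyme:substrate in 50 mM HEPES pH 7.5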
- Sequence (P09958 whole entry): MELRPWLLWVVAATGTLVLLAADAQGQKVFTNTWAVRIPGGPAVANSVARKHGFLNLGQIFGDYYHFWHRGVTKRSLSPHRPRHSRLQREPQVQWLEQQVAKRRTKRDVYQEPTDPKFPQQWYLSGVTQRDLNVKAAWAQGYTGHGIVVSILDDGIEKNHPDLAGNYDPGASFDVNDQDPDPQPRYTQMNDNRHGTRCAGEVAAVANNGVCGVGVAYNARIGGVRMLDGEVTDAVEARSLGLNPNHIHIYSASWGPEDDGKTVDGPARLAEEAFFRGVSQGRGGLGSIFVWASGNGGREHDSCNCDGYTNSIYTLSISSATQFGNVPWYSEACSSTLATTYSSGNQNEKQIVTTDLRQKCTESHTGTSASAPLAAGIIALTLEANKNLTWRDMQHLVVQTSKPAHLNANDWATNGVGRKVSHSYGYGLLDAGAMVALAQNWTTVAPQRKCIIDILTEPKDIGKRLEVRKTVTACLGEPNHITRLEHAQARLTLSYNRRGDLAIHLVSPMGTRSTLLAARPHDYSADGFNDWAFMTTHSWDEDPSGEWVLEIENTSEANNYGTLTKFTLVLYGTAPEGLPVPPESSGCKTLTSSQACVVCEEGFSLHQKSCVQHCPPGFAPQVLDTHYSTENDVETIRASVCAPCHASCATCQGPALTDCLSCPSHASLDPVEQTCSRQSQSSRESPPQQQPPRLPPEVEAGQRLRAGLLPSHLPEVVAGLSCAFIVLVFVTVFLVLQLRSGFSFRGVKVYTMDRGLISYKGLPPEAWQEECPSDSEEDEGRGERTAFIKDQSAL
- procedureDetails: furin cleavage Z-score vs untreated control; higher = more cleavage, active = 3.5 or more, inactive = 1 or less, 8 variable residues between constant flanks
- conditionParameters: 15 min
This is one part of the list. The true hit rate is not given.
Would you mind sorting the entries by furin cleavage Z-score according to these classes? low: < 0.9; moderate: ≥ 0.9 and < 5; high: ≥ 5

Worked cases, answers included:
[
  {
    "seqString": "CASTACSAHLAGNASASA [HC2503]",
    "classification": "moderate"
  },
  {
    "seqString": "CAYEECSQHLAGNASASA [HC1669]",
    "classification": "moderate"
  },
  {
    "seqString": "CATEHRVCRSAGNASASA [FS-508]",
    "classification": "high"
  },
  {
    "seqString": "CASPPVPPPRAGNASASA [HC1321]",
    "classification": "moderate"
  },
  {
    "seqString": "CALPCSFTTLAGNASASA [HC498]",
    "classification": "low"
  },
  {
    "seqString": "CAEVKTSTWVAGNASASA [HC2194]",
    "classification": "low"
  },
  {
    "seqString": "CARKKRIKRRAGNASASA [FS-2266]",
    "classification": "high"
  },
  {
    "seqString": "CAIERVHKRSAGNASASA [FS-1342]",
    "classification": "high"
  }
]

Now let's try a different one.
Problem: Which category does the recorded furin cleavage Z-score put CARKKRLENRAGNASASA [FS-2214] in?
Solution: low
